molecular target: T1, ROCK2 (UniProt O75116 5-554, limits assumed); assay: SPR (BiaCore), protein immobilized on CM-5 chip, peptide as analyte; no ROCK-II sensorgram is drawn
T1 construct: also called ROKa
T1 sequence (O75116 5-554 limits assumed): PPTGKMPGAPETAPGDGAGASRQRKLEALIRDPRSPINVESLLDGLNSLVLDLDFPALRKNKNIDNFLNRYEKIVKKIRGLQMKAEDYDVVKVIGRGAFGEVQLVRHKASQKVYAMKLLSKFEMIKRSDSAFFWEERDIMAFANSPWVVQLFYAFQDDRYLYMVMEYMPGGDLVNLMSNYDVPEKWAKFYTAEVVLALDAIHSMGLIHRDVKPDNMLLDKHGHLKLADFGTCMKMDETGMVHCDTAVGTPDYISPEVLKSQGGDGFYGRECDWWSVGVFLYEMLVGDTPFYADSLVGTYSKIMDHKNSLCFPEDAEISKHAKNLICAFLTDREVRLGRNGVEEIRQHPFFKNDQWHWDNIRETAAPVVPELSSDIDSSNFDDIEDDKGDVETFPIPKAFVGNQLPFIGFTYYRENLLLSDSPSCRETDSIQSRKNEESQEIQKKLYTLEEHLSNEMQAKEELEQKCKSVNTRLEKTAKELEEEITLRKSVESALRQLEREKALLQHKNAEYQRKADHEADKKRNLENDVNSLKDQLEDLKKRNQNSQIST
pKd: −log10 of the molar value. No end group written: not given here. TAT = TAT cell-penetrating sequence fused at N-terminus
outcomeMeasure: pKd

[[record]]
binder = "{TAT}-ERTYSPSTAVRS (Synthetic peptide added to the cell culture medium) [TATpeptide25 (peptide25 with the TAT sequence fused at its N-terminal end)]"
outcomemeasure = "pKd"
measured = 5.29

